Hey, just so you know, these numbers are from PubChem BioAssay (NCI).

tested on: MALME-3M melanoma; experiment: NCI-60 one-dose screen, 48 h; conditions: 10 µM unless noted
The panel holds about 83,000 compounds, 20% with a hit somewhere; the sample as a whole holds those more often. Activity calls are given as the source filed them. The calls were made as follows: active = growth percent below 10; inactive = the rest.
Classes to choose from: YES for active, NO for inactive

[ask] Check the results log: what was the call for CCCNCC(=O)Nc1ccc(C(=O)OC(C)(C)CC)cc1 ?
[reply] NO

[ask] Check the results log: what was the call for CC(=O)c1cc2c(o1)C(=O)c1ccccc1C2=O ?
[reply] YES

[ask] Check the results log: what was the call for Nc1c(-c2nc3ccc(Br)cc3c(=O)[nH]2)nnn1-c1ccccc1 ?
[reply] NO

[ask] Check the results log: what was the call for COc1ccc(-c2cc(-c3ccc(Nc4nc(Nc5ccccc5)nc(Nc5ccc(Cl)cc5)n4)cc3)nc(N)n2)cc1 ?
[reply] NO

Next:
[ask] Check the results log: what was the call for O=C(O)c1ccc(CO)o1 ?
[reply] NO

[ask] Check the results log: what was the call for O=C1N(c2ccccc2)C(=S)N[C@]12[C@H](c1ccccc1)C1CCCN1[C@]21C(=O)NC2C=CC(Cl)=C[C@H]21 (stereo not given in full) ?
[reply] NO

[ask] Check the results log: what was the call for C=CC(=O)Nc1cccc(C)c1Nc1cc(-c2cccnc2Cc2c(C)c(OC)cc(OC)c2C)ncn1 ?
[reply] NO

[ask] Check the results log: what was the call for O=C(NCCOCCOCCNc1cccc2c1C(=O)N(C1CCCNC1=O)C2=O)c1cc2c(o1)C(=O)c1ccccc1C2=O (stereo not given) ?
[reply] YES

[ask] Check the results log: what was the call for CC(C)n1nc(C#Cc2cccc(NC(=O)c3cccc(C(F)(F)F)c3)c2)c2c(N)ncnc21 ?
[reply] YES

[ask] Check the results log: what was the call for CCCCCCNc1cc(C)nc2ccc(OC)cc12 ?
[reply] NO
